Please respond with reported pKi for every item in the list.
- STUDY_SYSTEM: T1, human SNORF62 receptor (human, UniProt Q9HB89 1-426)
- T1 construct: also called hSNORF62; NMU receptor
- T1 sequence: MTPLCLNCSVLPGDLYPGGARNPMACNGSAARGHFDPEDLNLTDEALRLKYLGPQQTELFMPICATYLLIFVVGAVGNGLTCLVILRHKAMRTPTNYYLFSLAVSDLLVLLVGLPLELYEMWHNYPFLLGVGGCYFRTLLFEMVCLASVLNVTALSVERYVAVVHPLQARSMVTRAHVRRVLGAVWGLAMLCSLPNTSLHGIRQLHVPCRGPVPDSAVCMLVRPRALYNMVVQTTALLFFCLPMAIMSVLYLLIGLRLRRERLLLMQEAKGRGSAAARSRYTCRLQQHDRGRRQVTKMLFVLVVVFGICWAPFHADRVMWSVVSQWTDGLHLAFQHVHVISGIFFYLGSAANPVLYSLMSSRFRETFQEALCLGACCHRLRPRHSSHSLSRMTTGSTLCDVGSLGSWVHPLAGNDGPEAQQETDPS
- PROTOCOL: displacement of [125I]rat NMU-23, membranes of SNORF62-transfected COS-7 cells
No end group written: not given here.
Give bare numbers, as −log10 of the molar value.

{"BINDER": "YKVNEYQGPVAPSGGFFLFRPRN-NH2 (also called rat neuromedin U-23) [rat NMU-23]", "pKi": 9.30}

Would you kindly look at the next entry?
Endpoint output: pKi of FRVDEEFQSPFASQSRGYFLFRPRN-NH2 (also called human neuromedin U-25) [human NMU-25] . Value?
8.70
